- assay system: T1, Soluble CD28-Ig (extracellular domain of human CD28 fused to the Fc portion of human IgG1) (human, UniProt P10747 19-152, biotin-conjugated (NHS-biotin) in the FACS binding assays)
- T1 construct: extracellular domain; bought from R&D Systems; also called sCD28-Ig; CD28-Ig Fc; not shown: Fc portion of human IgG1
- protocol summary: competitive FACS on transfected cells, biotin-sCD28-Ig with FITC-sCTLA-4-Ig; grade 0-2 of CD28/CTLA-4 ratio vs WT hB7-1
property measured: Binding Score
Kindly provide the number alone.

These solved cases illustrate the format of a correct answer.
{"columns": ["binder", "property measured", "experimental value"],
 "data": [
  ["Round 2 CD28C2-4 (ligand) GISQVTKSVKEMAALSCDYNISIDELARMRIYWQKDQQMVLSIISGQVEVWPEYKNRTITDMNDNPRIVILALRLSDSGTYTCVIQKPVLKGAYKPEHLASVRLMIRADFPVPTINDLGNPSPNIRRLICSTSGGFPRPHLYWLENGEELNATNTTLSQDPETKLYMISSELDFNMTSNHSFLCLVKYGDLTVSQTFYWQESKPTPSANQHLTWTIIIPVSAFGISVIIAVILTCLTCRNAAIRRQRRENEVEMQSCSQSP", "Binding Score", 1],
  ["Round 2 CD28F8-4 (ligand) ITPKSVTKRVKETVMLSCDYSTSTEELTSLRIYWQKDSKMVLAILPGKVQVWPEYKNRTITDMNDNPRIVILALRLSDSGTYTCVIQKPVLKGAYKLEHLASVRLMIRADFPVPTINDLGNPSPNIRRLICSTSGGFPRPHLYWLENGEELNATNTTLSQDPETKLYMISSELDFNVTNNHSIVCLIKYGELSVSQIFPWSKPKQEPPIDQLPFWVIIPVSGALVLTAVVLYCLACRHVARWKRTRRNEETVGTERLSPIYLGSAQSSG", "Binding Score", 1],
  ["Round 2 CD28E2-5* (ligand) TTPKSVTKRVKETVMLSCDYNTSTEELTSLRIYWQKDSKMVLAILPGKVQVWPEYKNRTITDMNDNPRIVILALRPSDSGTYTCVIQKPVLKGAYKLEHLASVRLMIRADFPVPTINDLGNPSPNIRRLICSTSGGFPRPHLYWLENGEELNATNTTLSQDPETKLYMISSELDFNMTSNHSFLCLVKYGDLTVSQTFYWQESKPTPSANQHLTWTIIIPVSAFGISVIIAVILTCLTCRNAAIRRQRRENEVEMQSCSQSP", "Binding Score", 0],
  ["Round 2 CD28D8-9 (ligand) ITPKSVTKRVKETVMLSCDYSTSTEELTSLRIYWQKDSKMVLAILPGKVQVWPEYKNRTITDMNDNPRIVILALRLSDSGTYTCVIQKPVLKGAYKLEHLTSVRLMIRADFPVPTINDLGNPSPNIRRLICSTSGGFPRPHLYWLENGEELNATNTTVSQDPGTELYMISSELDFNVTNNHSIVCLIKYGELSVSQIFPWSKPKQEPPIDQLPFWVIIPVSGALVLTAVVLYCLACRHVARWKRTRRNEETVGTERLSPIYLGSAQSSG", "Binding Score", 1],
  ["Round 2 CD28C7-3 (ligand) ITPKSVTKRVKETVMLSCDYSTSTEELTSLRIYWQKDSKMVLAILPGKVQVWPEYKNRTITDMNDNPRIVILALRLSDSGTYTCVIQKPDLKGAYKLEHLTSVRLMIRADFPVPSITDIGHPAPNVKRIRCSASGDFPEPRLAWMEDGEELNAVNTTVDQDLDTELYSVSSELDFNVTNNHSIVCLIKYGELSVSQIFPWSKPKQEPPIDQLPFWVIIPVSGALVLTAVVLYCLACRHVARWKRTRRNEETVGTERLSPIYLGSAQSSG", "Binding Score", 1]
]}

Exam item: Can you look up the measured Binding Score of Round 2 CD28A6-9 (ligand) ITPKSVTKRVKETVMLSCDYNTSTEELTSLRIYWQKDSKMVLAILPGKVQVWPEYKNRTITDMNDNPRIVILALRLSDSGTYTCVIQKPVLKGAYKLEHLASVRLMIRADFPVPTINDLGNPSPNIRRLICSTSGGFPRPHLYWLENGEELNATNTTVSQDPGTELYMISSELDFNVTNNHSIVCLIKYGELSVSQIFPWSKPKQEPPIDQLPFLVIIPVSGALVLTAVVLYCLACRHVARWKRTRRNEETVGTERLSPIYLGSAQSSG for me?
Marked response: 1

Exam item: // repeat for Round 2 CD28BP-14 (ligand) GISQVTKSVKEMAALSCDYNISIDELARMRIYWQKDQQMVLSIISGQVEVWPEYKNRTITDMNDNPRIVILALRLSDSGTYTCVIQKPVLKGAYKLEHLASVRLMIRADFPVPTINDLGNPSPNIRRLICSTSGGFPRPHLYWLENGEELNATNTTVSQDPGTELYMISSELDFNVTNNHSIVCLIKYGELSVSQIFPWSKPKQEPPIDQLPFWVIIPVSGALVLTAVVLYCLACRHVARWKRTRRNEETVGTERLSPIYLGSAQSSG and report
Marked response: 2
